Reported values of melting point for individual entries
measurementType: melting point

compound="COc1cc(C)cc2c(C)c(C(C)N)oc12 (centres undefined)" measured="56 to 58 °C"
compound=CSc1nnnn1-c1cccc(N)c1 measured="113 to 115 °C"
compound=CC(=O)c1cccc(OCC(=O)N(C)C)c1 measured="93 to 95 °C"
compound=COC(=O)c1sc(-c2cccc(Br)c2)cc1N measured="107 to 109 °C"
compound=FC(F)(F)c1nc(Cl)c2cc(Br)ccc2n1 measured="101 to 103 °C"
compound=O=c1[nH]c2c(s1)CCC2 measured="142 to 144 °C"
compound=ClCc1csc(-c2ccsc2)n1 measured="64 to 66 °C"
compound=CCOC(=O)C(=O)Nc1ccc([N+](=O)[O-])cc1 measured="172 to 174 °C"
compound=O=C(O)Cc1cccc(OCc2cccc(Cl)c2)c1 measured="94 to 96 °C"
compound=CCCc1cc(Cl)n2nc(C(=O)OC)nc2n1 measured="117 to 119 °C"
compound=COc1ccc(C(=O)O)cc1S(=O)(=O)N1CCCC1 measured="218 to 220 °C"
compound="OC1CCc2cn[nH]c2C1 (centres undefined)" measured="154 to 156 °C"
compound="CC(N)c1ccc(OCC(=O)NC2CC2)cc1 (centres undefined)" measured="75 to 77 °C"
compound=N#CCC(=O)N1CCSCC1 measured="103 to 105 °C"
compound=Cc1n[nH]c(=O)c2noc(C)c12 measured="213 to 215 °C"
compound=COCCNc1cc2nc[nH]c(=O)c2cc1[N+](=O)[O-] measured="259 to 261 °C"
compound=N#Cc1ccccc1/C=C/C(=O)O measured="255 to 257 °C"
compound=Cn1cc(C=NNC(N)=S)cn1 measured="189 to 191 °C"
compound=Cc1ccc2c(C)c(CCC(=O)O)c(=O)oc2c1 measured="161 to 163 °C"
compound=COc1ccc(CCC(=O)Nc2ccccc2C(=O)O)cc1 measured="159 to 161 °C"
compound=O=C(O)c1cc(S(=O)(=O)Nc2ccccc2F)c[nH]1 measured="207 to 209 °C"
compound=CCOC(=O)CC(=O)c1[nH]c(C)c(C(=O)OCC)c1C measured="141 to 143 °C"
compound="CN1CCN(CC(N)c2ccccc2)CC1 (centres undefined)" measured="58 to 60 °C"
compound=Nc1ccc(S(=O)(=O)Nc2ccccc2Cl)cc1N measured="203 to 205 °C"
compound=Nc1cccc(OCCF)c1 measured="33 to 35 °C"
compound=Fc1ccccc1CNc1ccncc1 measured="83 to 85 °C"
compound=O=C(O)CSc1csc(-c2ccc(Br)cc2)n1 measured="178 to 180 °C"
compound=C=CC(=O)ON=C(N)c1cccc(Cl)c1 measured="114 to 116 °C"
compound=CCc1ccc(-c2cnnc(N)n2)cc1 measured="248 to 250 °C"
compound=CCOC(=O)c1ccn2nc3ncccc3c2n1 measured="209 to 211 °C"
compound=NC1(c2nc(C(=O)O)c[nH]2)CCC1 measured="273 to 275 °C"
compound=CCCCOc1ccc(C=CC(=O)O)cc1OCC measured="109 to 111 °C"
compound=CCOC(=O)/C=C1/SCC(=O)N1Cc1cc(C(C)=O)ccc1OCC measured="175 to 177 °C"
compound=COC(=O)/C=C/c1ccc(S(=O)(=O)Cl)cc1 measured="112 to 114 °C"
compound=O=C(O)c1cccc(Nc2ncccn2)c1 measured="270 to 272 °C"
compound=O=C(O)c1cc(Br)c2occc2c1 measured="239 to 241 °C"
compound=O=[N+]([O-])c1ccc(F)c([N+](=O)[O-])c1F measured="37 to 39 °C"
compound=O=C(COc1ccc2c(c1)CCC2)c1ccc(Cl)c(Cl)c1 measured="89 to 91 °C"
compound=CC(C)c1cc(C(=O)O)n(C)n1 measured="158 to 160 °C"
compound="COc1ccc([N+](=O)[O-])cc1NC(=O)C(C)Cl (centres undefined)" measured="131 to 133 °C"
compound=OCC1(NCc2ccccc2)CCC1 measured="51 to 53 °C"
compound=Cc1cccc2[nH]cc(CCC(=O)O)c12 measured="145 to 147 °C"
compound=COc1ccc(C(=O)Nc2cc(F)ccc2C(=O)O)cc1 measured="225 to 227 °C"
compound=Clc1nc(CN2CCCCC2)nc2sc3c(c12)CCC3 measured="75 to 77 °C"
